Recorded values, source ChEMBL document CHEMBL4321869.

biological target: Stimulator of interferon genes protein (Homo sapiens); assay: Inhibition of anti 6His antibody-labeled terbium cryptate binding to human wild-type full-length 6His-tagged […] STING measured after 4 hrs by HTRF assay
Sequence (Q86WV6 whole entry): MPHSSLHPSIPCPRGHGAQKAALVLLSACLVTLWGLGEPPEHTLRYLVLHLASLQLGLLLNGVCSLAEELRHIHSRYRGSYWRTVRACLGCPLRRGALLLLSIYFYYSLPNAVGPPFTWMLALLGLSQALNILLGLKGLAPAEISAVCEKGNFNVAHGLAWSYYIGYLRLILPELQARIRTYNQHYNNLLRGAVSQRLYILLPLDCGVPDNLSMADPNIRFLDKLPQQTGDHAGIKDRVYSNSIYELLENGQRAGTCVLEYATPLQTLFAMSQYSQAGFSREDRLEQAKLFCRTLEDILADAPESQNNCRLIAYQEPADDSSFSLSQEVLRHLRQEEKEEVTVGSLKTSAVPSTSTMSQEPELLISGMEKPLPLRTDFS

{"chemical.string": "CCn1nc(C)cc1C(=O)Nc1nc2cc(C(N)=O)cc(OC)c2n1CCCNC(=O)OCc1ccccc1", "IC50 [µM]": 0.582}
